assay: SRB cytotoxicity assay, CCD18Co; type: cell-based, human; conditions: human, CCD18Co non-malignant fibroblasts, 72 h treatment, mean n = 3, SD 5-10%
parameter: IC50 at 72 h (µM)
// return numeric value only (unit: µM, not printed)

COc1cccc2c1C(=O)c1c(O)c3c(c(O)c1C2=O)C[C@@](O)(C(=O)CO)C[C@@H]3O[C@H]1C[C@H](N)[C@H](O)[C@H](C)O1 [DOX, doxorubicin, reference compound]
0.242
C(=C\c1c[nH]c2ccccc12)/c1cccnc1 [Compound 4, 3-[(E)-2-Pyridin-3-yl-ethenyl]-1H-indole]
90.3
C(=C\c1c[nH]c2ccccc12)/c1ccncc1 [Compound 5, 3-[(E)-2-Pyridin-4-yl-ethenyl]-1H-indole]
100

Let us move to another entry and its IC50 at 72 h.
get_value(item= C(=C\c1c[nH]c2ccccc12)/c1ccccn1 [Compound 3, 3-[(E)-2-Pyridin-2-yl-ethenyl]-1H-indole] , readout=IC50 at 72 h) returns 87.4

====

Below, each of the compounds is paired with its reported log10 of IC50 value.
test system: A2780 (ovarian carcinoma); assay: SRB cytotoxicity assay, A2780; type: cell-based, human; conditions: SRB assay, 72 h treatment, mean n = 3, SD 5-10%
# values: log10(IC50), units nM

Take a look at these entries with their results.
C=C1C[C@@]23CC[C@H]4[C@@](C)(CCC[C@@]4(C)C(=O)OCCC[n+]4ccc(/C=C/c5c[nH]c6ccccc56)cc4)[C@@H]2CC[C@]1(O)C3.[Br-]
2.51
C=C1C[C@@]23CC[C@H]4[C@@](C)(CCC[C@@]4(C)C(=O)OCCC[n+]4cccc(/C=C/c5c[nH]c6ccccc56)c4)[C@@H]2CC[C@]1(O)C3.[Br-]
3.36
C=C1C[C@@]23CC[C@H]4[C@@](C)(CCC[C@@]4(C)C(=O)OCC[n+]4ccc(/C=C/c5c[nH]c6ccccc56)cc4)[C@@H]2CC[C@]1(O)C3.[Br-]
3.30
C[C@@]12CC[C@@H]3[C@@](CC[C@H]4[C@@]3(C)CCC[C@@]4(C)C(=O)OCCBr)(CC1=O)C2
4.28
CC12CCC3C(CCC4C(C)(C(=O)OCCCC[n+]5ccccc5C=Cc5c[nH]c6ccccc56)CCCC34C)(CC1=O)C2.[Br-] (stereo not drawn)
3.03

get_value(item= CC12CCC3C(CCC4C(C)(C(=O)OCCCC[n+]5ccc(C=Cc6c[nH]c7ccccc67)cc5)CCCC34C)(CC1=O)C2.[Br-] (stereo not drawn) , readout=log10 of IC50) returns 2.26

====

system: A549 (lung carcinoma); experiment: SRB cytotoxicity assay, A549; format: cell-based, human; conditions: SRB assay, 72 h treatment, mean n = 3, SD 5-10%
Below, each of the compounds is paired with its reported log10 of IC50 value.
# values: log10(IC50), units µM

Take a look at these entries with their results.
C=C1C[C@@]23CC[C@H]4[C@@](C)(CCC[C@@]4(C)C(=O)OCCC[n+]4cccc(/C=C/c5c[nH]c6ccccc56)c4)[C@@H]2CC[C@]1(O)C3.[Br-] [Compound 18]
0.98
C[C@@]12CC[C@@H]3[C@@](CC[C@H]4[C@@]3(C)CCC[C@@]4(C)C(=O)OCCBr)(CC1=O)C2 [Compound 7]
1.51

get_value(item= CC12CCC3C(CCC4C(C)(C(=O)OCC[n+]5ccc(C=Cc6c[nH]c7ccccc67)cc5)CCCC34C)(CC1=O)C2.[Br-] (stereo not drawn) [Compound 9] , readout=log10 of IC50) returns 0.96

get_value(item= CC12CCC3C(CCC4C(C)(C(=O)OCCCCBr)CCCC34C)(CC1=O)C2 (stereo not drawn) [Compound 23] , readout=log10 of IC50) returns 1.54

get_value(item= CC12CCC3C(CCC4C(C)(C(=O)OCCCC[n+]5ccc(C=Cc6c[nH]c7ccccc67)cc5)CCCC34C)(CC1=O)C2.[Br-] (stereo not drawn) [Compound 25] , readout=log10 of IC50) returns 0.42

get_value(item= C=C1C[C@@]23CC[C@H]4[C@@](C)(CCC[C@@]4(C)C(=O)OCCCC[n+]4cccc(/C=C/c5c[nH]c6ccccc56)c4)[C@@H]2CC[C@]1(O)C3.[Br-] [Compound 26] , readout=log10 of IC50) returns 0.84

====

tested on: A2780 (ovarian carcinoma); experiment: SRB cytotoxicity assay, A2780; type: cell-based, human; details: Homo sapiens, A2780; SRB assay, 72 h treatment, mean n = 3, SD 5-10%
Below, each of the molecules is paired with its reported pIC50 value.
# log scale: pIC50 equals minus log10 of the concentration in mol/L

C(=C\c1c[nH]c2ccccc12)/c1ccncc1 [Compound 5, 3-[(E)-2-Pyridin-4-yl-ethenyl]-1H-indole]
5.65
COc1cccc2c1C(=O)c1c(O)c3c(c(O)c1C2=O)C[C@@](O)(C(=O)CO)C[C@@H]3O[C@H]1C[C@H](N)[C@H](O)[C@H](C)O1 [DOX, doxorubicin, reference compound]
8.15
C(=C\c1c[nH]c2ccccc12)/c1cccnc1 [Compound 4, 3-[(E)-2-Pyridin-3-yl-ethenyl]-1H-indole]
5.93

get_value(item= C(=C\c1c[nH]c2ccccc12)/c1ccccn1 [Compound 3, 3-[(E)-2-Pyridin-2-yl-ethenyl]-1H-indole] , readout=pIC50) returns 5.92

====

system: CCD18Co (non-malignant human fibroblasts); assay: SRB cytotoxicity assay, CCD18Co; type: cell-based; settings: 72 h treatment, mean n = 3, SD 5-10%
IC50 strictly less than 10 µM = 1. Otherwise -1.

CC12CCC3C(CCC4C(C)(C(=O)OCC[n+]5ccc(C=Cc6c[nH]c7ccccc67)cc5)CCCC34C)(CC1=O)C2.[Br-] (stereo not drawn)
-1
CC12CCC3C(CCC4C(C)(C(=O)OCCCBr)CCCC34C)(CC1=O)C2 (stereo not drawn)
-1
CC12CCC3C(CCC4C(C)(C(=O)OCCCC[n+]5ccc(C=Cc6c[nH]c7ccccc67)cc5)CCCC34C)(CC1=O)C2.[Br-] (stereo not drawn)
-1
C=C1C[C@@]23CC[C@H]4[C@@](C)(CCC[C@@]4(C)C(=O)OCCC[n+]4ccc(/C=C/c5c[nH]c6ccccc56)cc4)[C@@H]2CC[C@]1(O)C3.[Br-]
1
C=C1C[C@@]23CC[C@H]4[C@@](C)(CCC[C@@]4(C)C(=O)OCCCC[n+]4ccccc4/C=C/c4c[nH]c5ccccc45)[C@@H]2CC[C@]1(O)C3.[Br-]
-1

API: the following record is the query input.
Q. Take the molecule CC12CCC3C(CCC4C(C)(C(=O)OCCC[n+]5ccc(C=Cc6c[nH]c7ccccc67)cc5)CCCC34C)(CC1=O)C2.[Br-] (stereo not drawn) and say whether its IC50 is less than 10 µM.
A. -1

====

tested on: HT29 (colorectal carcinoma); test: SRB cytotoxicity assay, HT29; type: cell-based, human; conditions: 72 h treatment, mean n = 3, SD 5-10%
Below, each of the compounds is paired with its reported IC50 value.
// return numeric value only (unit: µM, not printed)

Take a look at these entries with their results.
CC12CCC3C(CCC4C(C)(C(=O)OCCCC[n+]5ccc(C=Cc6c[nH]c7ccccc67)cc5)CCCC34C)(CC1=O)C2.[Br-] (stereo not drawn) [Compound 25]
0.88
C=C1C[C@@]23CC[C@H]4[C@@](C)(CCC[C@@]4(C)C(=O)OCCC[n+]4ccccc4/C=C/c4c[nH]c5ccccc45)[C@@H]2CC[C@]1(O)C3.[Br-] [Compound 20]
6.11
CC12CCC3C(CCC4C(C)(C(=O)OCC[n+]5ccc(C=Cc6c[nH]c7ccccc67)cc5)CCCC34C)(CC1=O)C2.[Br-] (stereo not drawn) [Compound 9]
1.56

get_value(item= C[C@@]12CC[C@@H]3[C@@](CC[C@H]4[C@@]3(C)CCC[C@@]4(C)C(=O)OCCBr)(CC1=O)C2 [Compound 7] , readout=IC50) returns 16.1

get_value(item= C=C1C[C@@]23CC[C@H]4[C@@](C)(CCC[C@@]4(C)C(=O)OCCBr)[C@@H]2CC[C@]1(O)C3 [Compound 6] , readout=IC50) returns 30.6

get_value(item= C=C1C[C@@]23CC[C@H]4[C@@](C)(CCC[C@@]4(C)C(=O)OCCC[n+]4cccc(/C=C/c5c[nH]c6ccccc56)c4)[C@@H]2CC[C@]1(O)C3.[Br-] [Compound 18] , readout=IC50) returns 6.66

get_value(item= CC12CCC3C(CCC4C(C)(C(=O)OCCC[n+]5cccc(C=Cc6c[nH]c7ccccc67)c5)CCCC34C)(CC1=O)C2.[Br-] (stereo not drawn) [Compound 19] , readout=IC50) returns 5.05

get_value(item= C=C1C[C@@]23CC[C@H]4[C@@](C)(CCC[C@@]4(C)C(=O)OCCCBr)[C@@H]2CC[C@]1(O)C3 [Compound 14] , readout=IC50) returns 29.1

get_value(item= C=C1C[C@@]23CC[C@H]4[C@@](C)(CCC[C@@]4(C)C(=O)OCCCC[n+]4ccccc4/C=C/c4c[nH]c5ccccc45)[C@@H]2CC[C@]1(O)C3.[Br-] [Compound 28] , readout=IC50) returns 1.78

get_value(item= C=C1C[C@@]23CC[C@H]4[C@@](C)(CCC[C@@]4(C)C(=O)OCC[n+]4cccc(/C=C/c5c[nH]c6ccccc56)c4)[C@@H]2CC[C@]1(O)C3 [Compound 10] , readout=IC50) returns 7.65

get_value(item= CC12CCC3C(CCC4C(C)(C(=O)OCCCC[n+]5cccc(C=Cc6c[nH]c7ccccc67)c5)CCCC34C)(CC1=O)C2.[Br-] (stereo not drawn) [Compound 27] , readout=IC50) returns 2.2

get_value(item= C=C1C[C@@]23CC[C@H]4[C@@](C)(CCC[C@@]4(C)C(=O)OCC[n+]4ccc(/C=C/c5c[nH]c6ccccc56)cc4)[C@@H]2CC[C@]1(O)C3.[Br-] [Compound 8] , readout=IC50) returns 1.81
